# RUN_DESCRIPTION: solvent given as SMILES
# TEST_SETTINGS: in CS(C)=O
Quick rule for you: fluorescence lifetime under 1 ns gets yes (1), anything else gets no (0).

CCN(CC)c1ccc2cc(/C(Cl)=C/C=C/C(=C(C#N)C#N)c3ccc4c(c3)c3ccccc3n4CC)c(=O)oc2c1 | yes (1)
CSc1sc(C(C)=O)c2nn[nH]c(=O)c12 | yes (1)
CC1=CC(c2ccc3cc(N(C)C)ccc3c2)=[O+][B-](F)(F)O1 | no (0)
CCCCCCCCn1c2ccccc2c(=O)c2ccccc21 | no (0)
N#Cc1ccc2[nH]ccc2c1 | no (0)
N#Cc1cccc2cc[nH]c12 | no (0)
COC(=O)C(Cc1ccc2oc(-c3ccc(Nc4ccccc4)cc3)nc2c1)NC(=O)OC(C)(C)C (stereo unspecified) | no (0)
CCN(CC)c1ccc(OC)c(C=O)c1 | no (0)
CCOC(=O)CN1C(=O)C2=C(c3ccc(N4CCCCC4)cc3)N(CC(=O)OCC)C(=O)C2=C1c1ccccc1 | no (0)
CCN(CC)c1ccc2cc(/C=C/C(=C(C#N)C#N)c3ccc(N(c4ccccc4)c4ccccc4)cc3)c(=O)oc2c1 | yes (1)
